- Tested on: 786-0 renal
- ASSAY_SUMMARY: NCI tumour cell line growth inhibition, 48 h
TGI reference

Cc1ccc(/C=C/C(=N/N=C(N)N)c2ccccc2)cc1 ... 6.53 µM
COC(CC1(/C=C/O[Si](C(C)C)(C(C)C)C(C)C)C(=O)N(COCC[Si](C)(C)C)c2ccccc21)OC (stereo unspecified) ... > 100 µM
Cc1cc(C)nc(SCC(=O)OC2CC(C)CCC2C(C)C)n1 (stereo unspecified) ... 42.6 µM

[Q] Name the reported TGI value associated with the compound C=CCc1cc(C=C(C#N)C#N)cc(OC)c1O
[A] > 100 µM

[Q] Name the reported TGI value associated with the compound C=C1CCC2C3(C)COC(c4c(OC)cccc4OC)OC3CCC2(C)C1C/C=C1/C(=O)OCC1O (stereo unspecified)
[A] 8.88 µM

[Q] Name the reported TGI value associated with the compound COC1(OC)N=C(N)C2(C#N)C3(C(=O)N(C(C)C)N=C3C)C12C#N (stereo unspecified)
[A] > 100 µM

[Q] Name the reported TGI value associated with the compound CN(C)CCC=C1c2ccccc2C(C)(C)c2ccccc21
[A] 27 µM

[Q] Name the reported TGI value associated with the compound N#CCCN(CCC#N)c1ccc(C(N=Nc2ccccc2)=Nc2ccc(Cl)cc2)cc1
[A] > 100 µM

[Q] Name the reported TGI value associated with the compound Cn1c(=O)c2ccc(-c3ccc(Br)cc3)nc2n(C)c1=O
[A] > 100 µM
